# assayMethodText: Oxidative metabolic lability in human liver microsomes
# experimentalSetup: 5 μM, 1 mg/mL microsomal protein, 20 min
Binary classification by Liver Microsome Lability Human, with 10% as an inclusive lower bound for condition met; all other cases are condition not met.

CN(C)c1cc2nc(C3CCCCC3)[nH]c2cc1NC(=O)c1ccc(OC(F)(F)F)cc1 [SB-P17G-A20] :: condition met
CN(C)c1cc2[nH]c(C3CCCCC3)nc2cc1NC(=O)c1ccc(OC(F)(F)F)cc1F [SB-P17G-A38] :: condition met
CCCCOC(=O)Nc1cc2nc(C3CCCCC3)[nH]c2cc1N(C)C [SB-P17G-C2] :: condition met
CN(C)c1cc2[nH]c(C3CCCCC3)nc2cc1NC(=O)c1ccc(OC(F)(F)F)c(F)c1F [SB-P17G-A33] :: condition not met

(Q) Threshold query (Liver Microsome Lability Human >= 10%) on CN(C)c1cc2[nH]c(C3CCCCC3)nc2cc1NC(=O)c1ccc(C(F)(F)F)cc1F [SB-P17G-A42]
(A) condition met

Numbers sourced from patent US10287617B2.
